Reference for the values: ChEMBL document CHEMBL3580572

target.of.assay: Kappa-type opioid receptor (Homo sapiens, UniProt P41145)
Sequence (P41145 whole entry): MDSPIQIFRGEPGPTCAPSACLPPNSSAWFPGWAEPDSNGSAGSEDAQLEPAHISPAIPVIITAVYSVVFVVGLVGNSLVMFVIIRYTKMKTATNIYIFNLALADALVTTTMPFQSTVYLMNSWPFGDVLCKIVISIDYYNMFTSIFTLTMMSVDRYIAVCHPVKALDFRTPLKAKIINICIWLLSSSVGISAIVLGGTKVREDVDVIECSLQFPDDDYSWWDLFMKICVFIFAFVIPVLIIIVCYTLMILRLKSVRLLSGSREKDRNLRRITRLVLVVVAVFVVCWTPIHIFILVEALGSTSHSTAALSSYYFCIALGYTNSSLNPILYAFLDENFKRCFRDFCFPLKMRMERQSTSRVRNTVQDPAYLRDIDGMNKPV
test: Intrinsic activity at human recombinant kappa opioid receptor expressed in CHO cells co-expressing C-terminally modified Galphaqi5 assessed as efficacy ratio by measuring stimulation of calcium release by Fluo-4 AM dye-based fluorescence assay relative to dynorphin-A
Assay type: functional, cell-based
Where a SMILES comes first, the peptide text is derived from it. Bridges are numbered along the chain shown (N, C = ends). [ ]: non-standard residue; d: D form. Phe(4-CF3) = N[C@@H](Cc1ccc(C(F)(F)F)cc1)C(=O)O; Dmt = Cc1cc(O)cc(C)c1C[C@H](N)C(=O)O
measured.attribute: Ratio
Give bare numbers.

molecule	Ratio
NC(=O)[C@@H]1CC(=O)NCCCC[C@@H](NC(=O)[C@@H](N)Cc2ccc(O)cc2)C(=O)N[C@@H](Cc2ccc(C(F)(F)F)cc2)C(=O)N[C@@H](Cc2ccccc2)C(=O)N1	0.7
Cc1cc(O)cc(C)c1C[C@H](N)C(=O)N[C@@H]1CCCCNC(=O)C[C@@H](C(N)=O)NC(=O)[C@H](Cc2ccccc2)NC(=O)[C@H](Cc2ccc(F)cc2F)NC1=O	0.65

Turning now to a further record.
Query :: # lookup: Ratio of Cc1cc(O)cc(C)c1C[C@H](N)C(=O)N[C@@H]1CCCCNC(=O)C[C@@H](C(N)=O)NC(=O)[C@H](Cc2ccc(C(F)(F)F)cc2)NC(=O)[C@H](Cc2ccccc2)NC1=O (H-[Dmt][dK]F[Phe(4-CF3)]D-NH2; lactam 2-5)
Result :: 0.6

* * *

target.of.assay: UniProtKB P41145
test: Intrinsic activity at human recombinant kappa opioid receptor expressed in CHO cells co-expressing C-terminally modified Galphaqi5 assessed as efficacy ratio by measuring stimulation of calcium release by Fluo-4 AM dye-based fluorescence assay relative to dynorphin-A
Format: functional, cell-based
I'd be grateful if you could share measured Ratio for these entries.
Numbers only.

Example entries begin here.
NC(=O)[C@@H]1CC(=O)NCCCC[C@@H](NC(=O)[C@@H](N)Cc2ccc(O)cc2)C(=O)N[C@@H](Cc2ccccc2)C(=O)N[C@@H](Cc2ccc(C(F)(F)F)cc2)C(=O)N1 0.78
NC(=O)[C@@H]1CC(=O)NCCCC[C@@H](NC(=O)[C@@H](N)Cc2ccc(O)cc2)C(=O)N[C@@H](Cc2ccc(F)cc2F)C(=O)N[C@@H](Cc2ccccc2)C(=O)N1 0.78

Pending compound:
Query :: Return reported Ratio; argument: `Cc1cc(O)cc(C)c1C[C@H](N)C(=O)N[C@@H]1CCCCNC(=O)C[C@@H](C(N)=O)NC(=O)[C@H](Cc2ccc(F)cc2)NC(=O)[C@H](Cc2ccccc2)NC1=O`
Result :: 0.71

* * *

Hi there, I'd appreciate the recorded Ratio for every entry that follows.
target.of.assay: Kappa-type opioid receptor (Homo sapiens, UniProt P41145)
test: Intrinsic activity at human recombinant kappa opioid receptor expressed in CHO cells co-expressing C-terminally modified Galphaqi5 assessed as efficacy ratio by measuring stimulation of calcium release by Fluo-4 AM dye-based fluorescence assay relative to dynorphin-A
Format: functional, cell-based
Give bare numbers.

// solved cases for Ratio follow
NC(=O)[C@@H]1CC(=O)NCCCC[C@@H](NC(=O)[C@@H](N)Cc2ccc(O)cc2)C(=O)N[C@@H](Cc2ccc(F)cc2)C(=O)N[C@@H](Cc2ccccc2)C(=O)N1 0.89
NC(=O)[C@@H]1CC(=O)NCCCC[C@@H](NC(=O)[C@@H](N)Cc2ccc(O)cc2)C(=O)N[C@@H](Cc2ccccc2)C(=O)N[C@@H](Cc2ccc(F)cc2)C(=O)N1 0.88

# per-item lookup of Ratio; items listed below
1. NC(=O)[C@@H]1CC(=O)NCCCC[C@@H](NC(=O)[C@@H](N)Cc2ccc(O)cc2)C(=O)N[C@@H](Cc2ccccc2)C(=O)N[C@@H](Cc2ccc(F)cc2F)C(=O)N1
2. Cc1cc(O)cc(C)c1C[C@H](N)C(=O)N[C@@H]1CCCCNC(=O)C[C@@H](C(N)=O)NC(=O)[C@H](Cc2ccccc2)NC(=O)[C@H](Cc2ccc(F)cc2)NC1=O
3. Cc1cc(O)cc(C)c1C[C@H](N)C(=O)N[C@@H]1CCCCNC(=O)C[C@@H](C(N)=O)NC(=O)[C@H](Cc2ccc(F)cc2F)NC(=O)[C@H](Cc2ccccc2)NC1=O

Result ::
[0.78, 0.79, 0.82]
